System: HL-60(TB) leukemia
Assay: NCI tumour cell line growth inhibition, 48 h
For each of the compounds below, state its log10 TGI.
The common logarithm of TGI in µM is what is listed.

Lab note: need log10 TGI for CC(ON1[C@](C)(c2ccccc2)CC[C@@]1(C)c1ccccc1)c1ccccc1 (stereo not given in full) on HL-60(TB) leukemia, anyone have it?
1.79

Tell me reported log10 TGI for "CC[C@]12C=CCN3CC[C@@]4(c5ccc(OC)cc5N(C)[C@H]4[C@@](O)(C(=O)OC)[C@@H]1OC(=O)CCC(=O)O[C@H]1CC[C@H]4[C@@H]5CC[C@H]6CC(=O)CC[C@]6(C)[C@H]5CC[C@]14C)[C@@H]32" , tested with HL-60(TB) leukemia.
0.73

Value wanted: log10 TGI (HL-60(TB) leukemia) of entry "C/C(CC(C)(C)N1CC1)=N\NC(=O)Nc1cccc2ccccc12"
0.70

Which measured log10 TGI belongs to "N#CC1(C#N)[C@@H]2CCC=C(Sc3ccccc3)[C@@H]21" , tested on HL-60(TB) leukemia?
1.70

What reported log10 TGI corresponds to CN1c2c(nc(N)[nH]c2=O)NCC1CCNc1ccc(C(=O)NC(CCC(=O)O)C(=O)O)cc1 (stereo not given) on HL-60(TB) leukemia?
3.35

Requested read-out log10 TGI, target or system HL-60(TB) leukemia, entry "CCOC(=O)Nc1ccc2c(c1)C(=O)N(CC)c1ccccc1O2"
-0.81

Look up log10 TGI with HL-60(TB) leukemia for this compound: "O=[N+]([O-])c1ccc(N=Nc2c(Cl)cc(O)cc2Cl)cc1"
0.46

Form: Entry = "CC1(C)N=c2cc3c(cc2N1c1ccc(Cl)cc1)=Nc1ccccc1N3c1ccc(Cl)cc1" | System = HL-60(TB) leukemia | log10 TGI = ____
0.62

Recall the recorded log10 TGI for "COc1ccc(C(=O)CCN(C)C)c2ccccc12" with HL-60(TB) leukemia and state it.
1.57

For the record "COc1cc2c3c(n(CCCn4cncn4)c(=O)c2cc1OC)-c1cc2c(cc1C3=O)OCO2" , what value of log10 TGI is listed for HL-60(TB) leukemia?
0.06

What value of log10 TGI on HL-60(TB) leukemia does "O=c1oc2ccc(Cl)cc2c(=O)n1-c1ccc(F)cc1F" have?
0.69

Notebook: pull reported log10 TGI for HL-60(TB) leukemia, entry "COC(=O)/C=C\C(C#N)(C#N)N=Cc1cccs1"
0.62

Look up log10 TGI with HL-60(TB) leukemia for this compound: "COc1ccc(-c2cc(-c3ccc(OC)cc3)nc(NCCCNc3ccnc4cc(Cl)ccc34)n2)cc1"
0.59

Find the measured log10 TGI: item "CN(/N=C/c1ccc(Cl)c(Cl)c1)C1=NCCCCN1" , target or system HL-60(TB) leukemia.
1.82

Find the measured log10 TGI: item "CCOC(=O)c1c2c(n3ccc(NC(=O)CCN4CCCCC4)cc13)C(=O)c1ncccc1C2=O" , target or system HL-60(TB) leukemia.
0.54

State its log10 TGI on HL-60(TB) leukemia: "O=C(CCCC(=O)N/N=C/c1cc(Cl)ccc1O)N/N=C\c1cc(Cl)ccc1O"
0.92

Fill in the recorded log10 TGI for this compound, with HL-60(TB) leukemia as test system: "COC(=O)C1=C(C(=O)ON)[C@@H]2C=C[C@@]1([C@@H](Cc1ccccc1)Nc1ccccc1)O2"
0.79

Reference source for all entries: PubChem BioAssay (NCI)
